# Assay notes: Cmax in human at 100 mg/day
# Type: ADME, organism-based
# Set-up: dose 100 mg/day
# Assay setup: in vivo
Starred links: 1 amine or outer side, 2 acyl side, 3 side chain; linkers in the order of their positions; H or OH if unused. Positions of bridges follow the written chain, without caps; N, C: chain ends. Non-standard residues stand in square brackets, D forms with d. Residues, ends and D or L forms follow the SMILES beside them. *: point of attachment. pTerphenylCO(4''-OnC5H11) = CCCCCOc1ccc(-c2ccc(-c3ccc(C(=O)*)cc3)cc2)cc1; Orn(4R-OH,5R-OH) = O=C([C@H](C[C@@H](O)[C@@H](O)N[*:3])N[*:1])[*:2]; hTyr(3S-OH,4S-OH) = N[C@H](C(=O)O)[C@H](O)[C@@H](O)c1ccc(O)cc1; Pro(3S-OH,4S-Me) = C[C@H]1CN[C@H](C(=O)O)[C@H]1O; Hyp = O=C(O)[C@@H]1C[C@@H](O)CN1
Measured attribute: Cmax (ng/mL)

Compound	Measured attribute	Reported value
CCCCCOc1ccc(-c2ccc(-c3ccc(C(=O)N[C@H]4C[C@@H](O)[C@@H](O)NC(=O)[C@@H]5[C@@H](O)[C@@H](C)CN5C(=O)[C@H]([C@@H](C)O)NC(=O)[C@H]([C@H](O)[C@@H](O)c5ccc(O)cc5)NC(=O)[C@@H]5C[C@@H](O)CN5C(=O)[C@H]([C@@H](C)O)NC4=O)cc3)cc2)cc1 [ANIDULAFUNGIN] ({pTerphenylCO(4''-OnC5H11)}-[Orn(4R-OH,5R-OH)]T[Hyp][hTyr(3S-OH,4S-OH)]T[Pro(3S-OH,4S-Me)]; lactam 1-C)	Cmax	11000
